experiment: binders of probe aFSTL3 on microarray, primary screen, stem cell growth factor project, biochemical, small-molecule microarray, fluorescence 635/667 (AID 1064); conditions: higher = more signal;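 also: measures binding of the biotinylated anti-FSTL3 antibody to printed compounds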
composite z-score listing for selected compounds.
measured_metric: composite z-score

[
  {
    "compound": "CC(=O)OC[C@H]1O[C@H](C#CCCc2ccccc2)C=C[C@@H]1OC(C)=O",
    "measured_metric": "composite z-score",
    "recorded_measurement": -0.692
  },
  {
    "compound": "COc1ccc(-c2cnnc(CCCn3ccnc3-c3ccccc3)n2)cc1",
    "measured_metric": "composite z-score",
    "recorded_measurement": -0.368
  },
  {
    "compound": "CCCNC(=O)OC[C@H]1O[C@H](CCON=C[C@@H](NS(=O)(=O)c2ccc(C)cc2)[C@H](C)C=CCC(=O)OC)C=C[C@@H]1Oc1ccc(OC)cc1",
    "measured_metric": "composite z-score",
    "recorded_measurement": -0.341
  },
  {
    "compound": "CC#CCOCCC=C1c2ccccc2[C@@H](OC)[C@@H]1C",
    "measured_metric": "composite z-score",
    "recorded_measurement": -0.35
  },
  {
    "compound": "C#CCCCON=C1C[C@@H](O)[C@@H](O)[C@@H]2[C@@H]3C(=O)N(CC)C(=O)[C@@H]3CC[C@H]12",
    "measured_metric": "composite z-score",
    "recorded_measurement": -0.281
  },
  {
    "compound": "C[C@]12CCC3c4ccc(OCC5CO5)cc4CCC3C1CC[C@@H]2O (stereo partly drawn)",
    "measured_metric": "composite z-score",
    "recorded_measurement": 0.157
  },
  {
    "compound": "COc1ccc(OC[C@H]2CN3[C@@H](CC[C@@H](C)[C@@H]3c3ccc(Br)cc3)C(=O)O2)cc1",
    "measured_metric": "composite z-score",
    "recorded_measurement": -0.358
  },
  {
    "compound": "CCOC(=O)CCN1C(=O)[C@H]2[C@H]3[C@H](O)[C@H](O)CC(=NO[C@@H]4O[C@H](CO)[C@@H](O)[C@H](O)[C@H]4O)[C@H]3CC[C@H]2C1=O",
    "measured_metric": "composite z-score",
    "recorded_measurement": -0.379
  },
  {
    "compound": "CC(=O)OC[C@H]1O[C@H](CC=NOC(C)CN2CCCc3nc(C)c(C)cc32)C=C[C@@H]1OC(C)=O (stereo partly drawn)",
    "measured_metric": "composite z-score",
    "recorded_measurement": -0.255
  },
  {
    "compound": "O=C(NCCC[N+]1=CC=NC1c1ccccc1)N1CCCc2nc(-c3ccc(Br)cc3)ccc21 (stereo not drawn)",
    "measured_metric": "composite z-score",
    "recorded_measurement": -0.265
  },
  {
    "compound": "Cc1cc2c(nc1C)CCCCN2CC(O)CN1CCCc2nc(-c3ccc(Br)cc3)ccc21 (stereo not drawn)",
    "measured_metric": "composite z-score",
    "recorded_measurement": -0.193
  },
  {
    "compound": "CC(CCC(=O)OC[C@H]1O[C@H](C#Cc2ccccc2)C=C[C@@H]1Oc1ccc(C)cc1)=NO[C@@H](C)c1cc(-c2c(C)cc(C)cc2C)no1",
    "measured_metric": "composite z-score",
    "recorded_measurement": -0.0913
  },
  {
    "compound": "CC(=O)OC[C@H]1O[C@@H](ON=C(C)CCN2CCCCc3nc(C)c(C)cc32)[C@H](OC(C)=O)[C@@H](OC(C)=O)[C@@H]1OC(C)=O",
    "measured_metric": "composite z-score",
    "recorded_measurement": -0.587
  },
  {
    "compound": "CC(=O)OC[C@H]1O[C@H](CC=NOC[C@@H](O)COCc2ccco2)C=C[C@@H]1OC(C)=O",
    "measured_metric": "composite z-score",
    "recorded_measurement": -0.37
  },
  {
    "compound": "CC(C)(C)N1C(=O)[C@H]2[C@H]3[C@H](O)[C@H](O)CC(=NNC(=O)OCc4ccccc4)[C@H]3CC[C@H]2C1=O",
    "measured_metric": "composite z-score",
    "recorded_measurement": -0.642
  },
  {
    "compound": "CCOC(=O)[C@H](Cc1ccccc1)NC(=O)CCC1CC(OC(=O)NCc2cccc3ccccc23)CC2(CCCC(COC(=O)NCc3ccc4c(c3)OCO4)O2)O1 (stereo partly drawn)",
    "measured_metric": "composite z-score",
    "recorded_measurement": -0.341
  },
  {
    "compound": "COC(=O)[C@@H]1CC[C@H](C)[C@@H](c2ccc(C)cc2)N1C(=O)c1ccc(C=NOC[C@@H](O)[C@H]2O[C@@H]3OC(C)(C)O[C@@H]3[C@H]2O)cc1",
    "measured_metric": "composite z-score",
    "recorded_measurement": -0.264
  },
  {
    "compound": "CCOC(=O)NN=C1C[C@@H](O)[C@@H](O)[C@@H]2[C@@H]3C(=O)N(c4ccc(F)cc4F)C(=O)[C@@H]3CC[C@H]12",
    "measured_metric": "composite z-score",
    "recorded_measurement": -0.496
  },
  {
    "compound": "COc1ccc(COC(=O)NN=C2C[C@@H](O)[C@@H](O)[C@@H]3[C@@H]4C(=O)N(C[C@@H]5CCCO5)C(=O)[C@@H]4CC[C@@H]23)cc1",
    "measured_metric": "composite z-score",
    "recorded_measurement": -0.227
  },
  {
    "compound": "CC(C)C(=O)N[C@H]1CCCN1C(=O)C=Cc1ccccc1",
    "measured_metric": "composite z-score",
    "recorded_measurement": -0.174
  },
  {
    "compound": "CCN1C(C)=C(C(=O)OC)[C@@H](c2ccccc2)N2C(=O)[C@](O)(C(=O)OC)CC(C(C)=O)=C12",
    "measured_metric": "composite z-score",
    "recorded_measurement": -0.619
  },
  {
    "compound": "CO[C@@H]1COC(=O)[C@@H]2CCCN2C(=O)[C@@H](C)COC(=O)CCC[C@H]1C",
    "measured_metric": "composite z-score",
    "recorded_measurement": -0.468
  },
  {
    "compound": "CCOC(=O)[C@H](Cc1ccccc1)NC(=O)CCC1CC(OC(=O)NCc2cccc3ccccc23)CC2(CCCC(COC(=O)NCC3CCCCC3)O2)O1 (stereo partly drawn)",
    "measured_metric": "composite z-score",
    "recorded_measurement": -0.421
  }
]
